For each of the molecules below, state its Effect on hemagglutinin titers.
tested on: antibody-forming cells (AFC) in the spleen; assay: Influence of compound on humoral immune response to sheep erythrocytes, C57B1/6 female mice (AFC in spleen, hemagglutinins); format: in vivo; conditions: 136.5 μg/mouse, i.v., vs control

The examples below pair each entry with its known result.
| MOLECULE | Effect on hemagglutinin titers |
| --- | --- |
| CC1=C(/C=C/C(C)=C/C=C/C(C)=C\C(=O)N[C@@H](COP(=O)(O)O)C(=O)O)C(C)(C)CCC1 (stereo in doubt) [Compound 2a, N-(13-cis-Retinoyl)-O-phospho-L-serine] | +5.1 p > 0.05% |
| CC/C=C\C/C=C\C/C=C\CCCCCCCC(=O)N[C@@H](Cc1ccc(OP(=O)(O)O)cc1)C(=O)O [Compound 20] | +2.7 p > 0.05% |

From here, focus on the item given below.
Data request: // lookup Effect on hemagglutinin titers for CC/C=C\C/C=C\C/C=C\C/C=C\C/C=C\CCCC(=O)N[C@@H](COP(=O)(O)O)C(=O)O [Compound 14]
Data returned: 0%

----------
tested on: antibody-forming cells (AFC) in the spleen; assay: Influence of compound on humoral immune response to sheep erythrocytes, C57B1/6 female mice (AFC in spleen, hemagglutinins); format: in vivo; conditions: 91 μg/mouse, i.v., 5th day, M ± SEM
ATTRIBUTE MEASURED: Amount of antibody-forming cells per spleen

Some solved cases for reference:
| MOLECULE | TEST RESULT |
| --- | --- |
| CC1=C(/C=C/C(C)=C/C=C/C(C)=C/C(=O)N[C@H](C(=O)O)[C@@H](C)OP(=O)(O)O)C(C)(C)CCC1 (relative stereo) [Compound 3] | 60.3±4.1 × 10^3 |
| CC/C=C\C/C=C\C/C=C\C/C=C\C/C=C\C/C=C\CCC(=O)N[C@@H](Cc1ccc(OP(=O)(O)O)cc1)C(=O)O [Compound 12] | 40.2±2.7 × 10^3 |
| CC/C=C\C/C=C\C/C=C\CCCCCCCC(=O)N[C@H](C(=O)O)[C@@H](C)OP(=O)(O)O [Compound 19] | 51.2±6.1 × 10^3 |

Each of the following entries comes with a recorded value; kindly state Amount of antibody-forming cells per spleen for each.
1. CC/C=C\C/C=C\C/C=C\C/C=C\C/C=C\CCCC(=O)N[C@@H](COP(=O)(O)O)C(=O)O [Compound 14]
2. CC/C=C\C/C=C\C/C=C\C/C=C\C/C=C\CCCC(=O)NCCOP(=O)(O)O [Compound 13]
3. CC/C=C\C/C=C\C/C=C\CCCCCCCC(=O)NCCOP(=O)(O)O [Compound 17]
4. CC/C=C\C/C=C\C/C=C\CCCCCCCC(=O)N[C@@H](Cc1ccc(OP(=O)(O)O)cc1)C(=O)O [Compound 20]
5. CC/C=C\C/C=C\C/C=C\C/C=C\C/C=C\C/C=C\CCC(=O)N[C@H](C(=O)O)[C@@H](C)OP(=O)(O)O [Compound 11]
6. CC1=C(/C=C/C(C)=C/C=C/C(C)=C\C(=O)N[C@@H](COP(=O)(O)O)C(=O)O)C(C)(C)CCC1 (stereo in doubt) [Compound 2a, N-(13-cis-Retinoyl)-O-phospho-L-serine]
7. CC1=C(/C=C/C(C)=C/C=C/C(C)=C\C(=O)NCCOP(=O)(O)O)C(C)(C)CCC1 [Compound 1a]
8. CC1=C(/C=C/C(C)=C/C=C/C(C)=C/C(=O)N[C@@H](Cc2ccc(OP(=O)(O)O)cc2)C(=O)O)C(C)(C)CCC1 (stereo in doubt) [Compound 4]

Data returned:
1. 80.8±12.7 × 10^3
2. 49.4±6.2 × 10^3
3. 63.5±5.1 × 10^3
4. 55.7±5.6 × 10^3
5. 111.2±11.8 × 10^3
6. 59.4±5.2 × 10^3
7. 114.5±8.2 × 10^3
8. 87.6±4.3 × 10^3

Data request: Bench note: what Amount of antibody-forming cells per spleen did CC/C=C\C/C=C\C/C=C\C/C=C\C/C=C\C/C=C\CCC(=O)N[C@@H](COP(=O)(O)O)C(=O)O [Compound 10] show?
Data returned: 34.7±8.5 × 10^3
